Molecular target: UniProt A8NS89
Sequence (A8NS89 whole entry): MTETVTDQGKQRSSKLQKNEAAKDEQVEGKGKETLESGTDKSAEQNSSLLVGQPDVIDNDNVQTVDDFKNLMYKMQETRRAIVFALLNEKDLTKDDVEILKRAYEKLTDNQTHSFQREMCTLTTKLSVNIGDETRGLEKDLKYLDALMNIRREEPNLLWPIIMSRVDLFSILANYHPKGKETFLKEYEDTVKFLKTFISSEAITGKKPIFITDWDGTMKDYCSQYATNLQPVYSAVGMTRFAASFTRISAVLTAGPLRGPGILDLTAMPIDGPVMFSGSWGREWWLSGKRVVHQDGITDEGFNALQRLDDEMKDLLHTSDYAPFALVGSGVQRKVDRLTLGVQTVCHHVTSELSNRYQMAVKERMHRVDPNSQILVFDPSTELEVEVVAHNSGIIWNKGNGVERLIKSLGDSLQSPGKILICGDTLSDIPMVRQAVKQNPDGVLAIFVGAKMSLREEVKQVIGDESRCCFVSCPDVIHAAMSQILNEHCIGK
Test: Reversible competitive inhibition of Brugia malayi T6PP using T6P as substrate by Lineweaver-Burk plot analysis
property: Ki (µM)
Note: unit µM is implicit; provide only the numeric part.

// fetch UniProt A8NS89 Ki for O=S(=O)(O)OC[C@H]1O[C@H](Oc2ccccc2)[C@H](O)[C@@H](O)[C@@H]1O
320

###

Test system: Shigella boydii
Assay: Inhibition of Shigella boydii T6PP using T6P as substrate assessed as fraction of enzyme unbound with compound by measuring ratio of initial velocities of T6P substrate hydrolysis in presence and absence of compound at 1 mM after 5 mins by BioMol green dye based HTS assay
property: Ratio
Could you respond with only the numeric value?

# example entries with known answers
{"structure smiles string": "OC[C@H]1O[C@@H](Nc2ccccc2)[C@H](O)[C@@H](O)[C@@H]1O", "property": "Ratio", "measured number": 0.92}
{"structure smiles string": "COc1cc(C=O)cc(OC)c1O[C@@H]1O[C@H](COS(=O)(=O)O)[C@@H](O)[C@H](O)[C@H]1O", "property": "Ratio", "measured number": 1}
{"structure smiles string": "CCCCCCCCc1ccc(O[C@@H]2O[C@H](COS(=O)(=O)O)[C@@H](O)[C@H](O)[C@H]2O)cc1", "property": "Ratio", "measured number": 0.04}

Recorded Ratio of O=S(=O)(O)OC[C@H]1O[C@@H](Oc2ccc(-c3ccccc3)cc2)[C@H](O)[C@@H](O)[C@@H]1O , please.
0.84

###

Catalogue of Ki values
Assay: Inhibition of Ascaris suum T6PP using T6P as substrate by Lineweaver-Burk plot analysis
Note: unit µM is implicit; provide only the numeric part.

# example entries with known answers
{"structure smiles string": "CCCCCCCCc1ccc(O[C@@H]2O[C@H](COS(=O)(=O)O)[C@@H](O)[C@H](O)[C@H]2O)cc1", "property": "Ki", "measured number": 180}
{"structure smiles string": "CCCCCCc1ccc(O[C@H]2O[C@H](COS(=O)(=O)O)[C@@H](O)[C@H](O)[C@H]2O)cc1", "property": "Ki", "measured number": 350}
{"structure smiles string": "O=S(=O)(O)OC[C@H]1O[C@@H](Oc2ccc(-c3ccccc3)cc2)[C@H](O)[C@@H](O)[C@@H]1O", "property": "Ki", "measured number": 1800}
{"structure smiles string": "O=S(=O)(O)OC[C@H]1O[C@H](O[C@H]2O[C@H](CO)[C@@H](O)[C@H](O)[C@H]2O)[C@H](O)[C@@H](O)[C@@H]1O", "property": "Ki", "measured number": 50}

// switching to the query compound
Recorded Ki of CCCCCCc1ccc(O[C@@H]2O[C@H](COS(=O)(=O)O)[C@@H](O)[C@H](O)[C@H]2O)cc1 , please.
200

###

Catalogue of Km values
Tested on: Ascaris suum
Experiment: Inhibition of Ascaris suum T6PP assessed as Km for substrate using T6P as substrate by Lineweaver-Burk plot analysis
Note: unit µM is implicit; provide only the numeric part.

# example entries with known answers
{"structure smiles string": "CCCCCCc1ccc(O[C@H]2O[C@H](COS(=O)(=O)O)[C@@H](O)[C@H](O)[C@H]2O)cc1", "test system": "Ascaris suum", "display unit": "µM", "Km": 353}
{"structure smiles string": "CCCCCCCCc1ccc(O[C@H]2O[C@H](COS(=O)(=O)O)[C@@H](O)[C@H](O)[C@H]2O)cc1", "test system": "Ascaris suum", "display unit": "µM", "Km": 406}
{"structure smiles string": "O=S(=O)(O)OC[C@H]1O[C@@H](Oc2ccc(-c3ccccc3)cc2)[C@H](O)[C@@H](O)[C@@H]1O", "test system": "Ascaris suum", "display unit": "µM", "Km": 290}

// switching to the query compound
Recorded Km of CCCCCCCCc1ccc(O[C@@H]2O[C@H](COS(=O)(=O)O)[C@@H](O)[C@H](O)[C@H]2O)cc1 , please.
336

###

System: Salmonella enterica subsp. enterica serovar Typhimurium
Test: Inhibition of Salmonella typhimurium T6PP using T6P as substrate assessed as fraction of enzyme unbound with compound by measuring ratio of initial velocities of T6P substrate hydrolysis in presence and absence of compound at 1 mM after 5 mins by BioMol green dye based HTS assay
property: Ratio

# example entries with known answers
{"structure smiles string": "O=S(=O)(O)OC[C@H]1O[C@@H](Oc2ccc(F)c(F)c2)[C@H](O)[C@@H](O)[C@@H]1O", "property": "Ratio", "result": 0.89}
{"structure smiles string": "O=S(=O)(O)OC[C@H]1O[C@@H](n2cc(-c3ccccc3)nn2)[C@H](O)[C@@H](O)[C@@H]1O", "property": "Ratio", "result": 0.97}
{"structure smiles string": "OC[C@H]1O[C@@H](NC(=S)Nc2ccccc2)[C@H](O)[C@@H](O)[C@@H]1O", "property": "Ratio", "result": 1.09}
{"structure smiles string": "O=S(=O)(O)OC[C@H]1O[C@H](O)[C@H](O)[C@@H](O)[C@@H]1O", "property": "Ratio", "result": 0.84}

// fetch Salmonella enterica subsp. enterica serovar Typhimurium Ratio for CC(=O)Nc1ccc(O[C@@H]2O[C@H](COS(=O)(=O)O)[C@@H](O)[C@H](O)[C@H]2O)cc1
0.85

Same question, OC[C@H]1O[C@@H](n2cc(-c3ccccc3)nn2)[C@H](O)[C@@H](O)[C@@H]1O this time
0.9

Same question, O=P(O)(O)OC[C@H]1O[C@@H](Oc2ccccc2)[C@H](O)[C@@H](O)[C@@H]1O this time
0.77

Same question, O=Cc1ccc(O[C@@H]2O[C@H](COS(=O)(=O)O)[C@@H](O)[C@H](O)[C@H]2O)cc1 this time
0.87

Same question, COc1cc(C=O)cc(OC)c1O[C@@H]1O[C@H](COS(=O)(=O)O)[C@@H](O)[C@H](O)[C@H]1O this time
0.96

Same question, OC[C@H]1O[C@@H](Nc2ccccc2)[C@H](O)[C@@H](O)[C@@H]1O this time
0.77

###

Catalogue of Vmax values
Tested on: Shigella boydii
Assay: Inhibition of Shigella boydii T6PP assessed as Vmax for substrate using T6P as substrate by Lineweaver-Burk plot analysis
Note: unit µM/s is implicit; provide only the numeric part.

# example entries with known answers
{"structure smiles string": "CCCCCCc1ccc(O[C@@H]2O[C@H](COS(=O)(=O)O)[C@@H](O)[C@H](O)[C@H]2O)cc1", "Vmax (µM/s)": 0.534}
{"structure smiles string": "CCCCCCc1ccc(O[C@H]2O[C@H](COS(=O)(=O)O)[C@@H](O)[C@H](O)[C@H]2O)cc1", "Vmax (µM/s)": 0.541}
{"structure smiles string": "CCCCCCCCc1ccc(O[C@H]2O[C@H](COS(=O)(=O)O)[C@@H](O)[C@H](O)[C@H]2O)cc1", "Vmax (µM/s)": 0.897}

// switching to the query molecule
Recorded Vmax of CCCCCCCCc1ccc(O[C@@H]2O[C@H](COS(=O)(=O)O)[C@@H](O)[C@H](O)[C@H]2O)cc1 , please.
0.495

###

Catalogue of Ratio values
Biological target: Trehalose-phosphatase (Brugia malayi) (UniProt A8NS89)
Sequence (whole entry): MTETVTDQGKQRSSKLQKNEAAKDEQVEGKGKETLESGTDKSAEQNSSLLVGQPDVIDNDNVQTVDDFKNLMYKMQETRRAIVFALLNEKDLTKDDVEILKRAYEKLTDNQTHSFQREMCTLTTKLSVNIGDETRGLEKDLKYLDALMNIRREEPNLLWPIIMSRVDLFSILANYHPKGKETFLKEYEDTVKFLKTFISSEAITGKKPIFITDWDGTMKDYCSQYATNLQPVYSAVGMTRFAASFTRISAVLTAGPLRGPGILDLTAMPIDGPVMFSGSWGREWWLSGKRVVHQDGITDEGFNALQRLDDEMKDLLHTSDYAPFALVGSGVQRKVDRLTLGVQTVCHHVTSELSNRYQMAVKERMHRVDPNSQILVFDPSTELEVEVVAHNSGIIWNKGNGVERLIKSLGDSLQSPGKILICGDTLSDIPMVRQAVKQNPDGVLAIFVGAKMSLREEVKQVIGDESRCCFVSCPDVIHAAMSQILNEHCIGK
Experiment: Inhibition of Brugia malayi T6PP using T6P as substrate assessed as fraction of enzyme unbound with compound by measuring ratio of initial velocities of T6P substrate hydrolysis in presence and absence of compound at 1 mM […] by BioMol green dye based HTS assay
Could you respond with only the numeric value?

{"structure smiles string": "OC[C@H]1O[C@H](O[C@H]2O[C@H](CO)[C@@H](O)[C@H](O)[C@H]2O)[C@H](O)[C@@H](O)[C@@H]1O", "Ratio": 0.98}

Recorded Ratio of CCCCCCCCO[C@@H]1O[C@H](COS(=O)(=O)O)[C@@H](O)[C@H](O)[C@H]1O , please.
0.72

Same question, O=Cc1cccc(O[C@@H]2O[C@H](COS(=O)(=O)O)[C@@H](O)[C@H](O)[C@H]2O)c1 this time
1.05

Same question, O=S(=O)(O)OC[C@H]1O[C@@H](Oc2cccc(CO)c2)[C@H](O)[C@@H](O)[C@@H]1O this time
0.69

Same question, OC[C@H]1O[C@@H](n2cc(-c3ccccc3)nn2)[C@H](O)[C@@H](O)[C@@H]1O this time
0.85

Same question, O=Cc1ccc(O[C@@H]2O[C@H](COS(=O)(=O)O)[C@@H](O)[C@H](O)[C@H]2O)cc1 this time
1

Same question, O=S(=O)(O)OC[C@H]1O[C@@H](Oc2ccc(-c3ccccc3)cc2)[C@H](O)[C@@H](O)[C@@H]1O this time
0.58

Same question, COc1cc(C=O)cc(OC)c1O[C@@H]1O[C@H](COS(=O)(=O)O)[C@@H](O)[C@H](O)[C@H]1O this time
0.55

Data origin: ChEMBL document CHEMBL4004850
